- Tested on: TNFα production by LPS-stimulated monocytes
- assay.comment: Monocyte assay: LPS-induced TNFα secretion
- Format: cell-based, human
- assay.context: Table 11/FIG. 14, mean of three donors, LPS 100 ng/ml, 24 h; read-out: Mean EC50, inhibition of TNFα production by LPS-stimulated monocytes
property.label: pEC50
Remember, pEC50 is on a log scale: it is -log10 of the molar concentration.

Enquiry: I'd like to know its pEC50. The compound in question is CCCCC[C@@H](O)c1ccc([C@H]2CCC(=O)[C@@H]2CCCCCCC(=O)O)cc1 (single isomer, unassigned; peak 1) [Peak 1, Mixture 2 acid]
Return: 5.17

Every entry's value here was drawn from patent US20080045596A1.
